Biological target: human orexin type 2 receptor (hOX2R) (Homo sapiens, UniProt O43614)
Construct: expressed in transfected cells
Sequence (O43614 1-444): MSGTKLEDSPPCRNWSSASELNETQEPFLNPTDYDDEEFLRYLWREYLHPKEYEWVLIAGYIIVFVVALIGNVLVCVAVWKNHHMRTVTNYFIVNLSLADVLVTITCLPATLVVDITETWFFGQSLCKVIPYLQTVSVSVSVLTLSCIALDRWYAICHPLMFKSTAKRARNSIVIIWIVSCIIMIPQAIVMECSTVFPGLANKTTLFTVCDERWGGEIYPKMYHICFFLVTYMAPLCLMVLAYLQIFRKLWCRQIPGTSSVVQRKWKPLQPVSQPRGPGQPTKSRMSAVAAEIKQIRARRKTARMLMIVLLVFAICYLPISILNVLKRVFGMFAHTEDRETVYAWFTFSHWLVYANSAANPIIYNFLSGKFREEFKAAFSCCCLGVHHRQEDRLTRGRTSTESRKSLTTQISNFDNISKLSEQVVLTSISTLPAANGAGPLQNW
Experiment: Measurement of orexin type 2 receptor agonist activity (FLIPR calcium fluorescence)
Type: cell-based
Settings: CHO cells expressing hOX2R, FLIPR calcium fluorescence; read-out: hOx2 pEC50 (converted)
Method: The biological activity of the compounds of the present disclosure may be determined in cells stably expressing either orexin type 2 or orexin type 1 receptor. […] The agonist activity of a compound of the present disclosure may be determined by fluorescence value. Stable cell line generation. Measurement of orexin type 2 receptor agonist activity. […] As used herein, E. indicates the value at 10 μM concentration when orexin A is converted to a full agonist (maximum value of agonist activity. 100%).
Reported EC50 values for the following compounds.

compound: CCS(=O)(=O)NC1C(Cc2cccc(-c3ccccc3)c2)N(C(=O)C(C)C)CC12CC2 (racemic) [Compound 7]
EC50: 1 to 10 nM
--
compound: CS(=O)(=O)N[C@@H]1[C@H](Cc2cccc(-c3ccccc3)c2F)N(C(=O)NCC2(F)CC2)CC12CC2 [Compound 104]
EC50: 1 to 10 nM
--
compound: CC(F)(F)CNC(=O)N1CC2(CC2)[C@H](NS(=O)(=O)CF)[C@@H]1Cc1cccc(-c2ccccc2)c1F [Compound 409]
EC50: 1 to 10 nM
--
compound: CS(=O)(=O)N[C@@H]1[C@H](Cc2cccc(-c3ccccc3)c2)N(C(=O)[C@H](O)C(F)(F)F)CC12CC2 [Compound 43]
EC50: 1 to 10 nM
--
compound: CS(=O)(=O)NC1C(Cc2cccc(-c3ccccc3)c2F)N(C(=O)C2(O)CCC2)CC12CC2 (racemic) [Compound 50]
EC50: 0.0794 to 1 nM
--
compound: C[C@H](CF)NC(=O)N1CC2(CC2)[C@H](NS(=O)(=O)C(F)F)[C@@H]1Cc1cc(F)cc(-c2ccccc2)c1F [Compound 388]
EC50: 1 to 10 nM
--
compound: CS(=O)(=O)N[C@@H]1[C@H](Cc2cccc(-c3ccccc3)c2F)N(C(=O)[C@H]2CCO2)CC12CC2 [Compound 21]
EC50: 1 to 10 nM
--
compound: CCCNC(=O)N1CC2(CC2)[C@H](NS(C)(=O)=O)[C@@H]1Cc1cccc(-c2ccccc2)c1F [Compound 111]
EC50: 1 to 10 nM
--
compound: CC(C)(O)C(=O)N1CC2(CC2)C(NS(C)(=O)=O)C1Cc1cccc(-c2cc(F)cc(F)c2)c1F (racemic) [Compound 28]
EC50: 10 to 100 nM
--
compound: CS(=O)(=O)N[C@@H]1[C@H](Cc2cccc(-c3ccccc3)c2F)N(C(=O)NC[C@@H]2CCO2)CC12CC2 [Compound 333]
EC50: 1 to 10 nM
--
compound: CC(C)C(=O)N1CC2(CC2)[C@@H](NS(C)(=O)=O)[C@H]1Cc1cccc(-c2ccccc2)c1 [Compound 16]
EC50: 100 to 1000 nM
--
compound: C[C@]1(C(=O)N2CC3(CC3)[C@H](NS(=O)(=O)CF)[C@@H]2Cc2cccc(-c3ccccc3)c2F)CCO1 [Compound 202]
EC50: 1 to 10 nM
--
compound: O=C([C@H]1CCCO1)N1CC2(CC2)[C@H](NS(=O)(=O)CF)[C@@H]1Cc1cccc(-c2ccccc2)c1F [Compound 401]
EC50: 1 to 10 nM
--
compound: CC(C#N)NC(=O)N1CC2(CC2)[C@H](NS(C)(=O)=O)[C@@H]1Cc1cccc(-c2ccccc2)c1F (stereo partly drawn) [Compound 341]
EC50: 0.0794 to 1 nM
--
compound: C[C@]1(NC(=O)N2CC3(CC3)[C@H](NS(C)(=O)=O)[C@@H]2Cc2cccc(-c3ccccc3)c2F)CCOC1 [Compound 320]
EC50: 10 to 100 nM
--
compound: O=C([C@H]1CCO1)N1CC2(CC2)[C@H](NS(=O)(=O)CF)[C@@H]1Cc1cccc(-c2ccccc2)c1F [Compound 93]
EC50: 0.0794 to 1 nM
--
compound: CN(C(=O)N1CC2(CC2)[C@H](NS(C)(=O)=O)[C@@H]1Cc1cccc(-c2ccccc2)c1F)[C@H]1CCOC1 [Compound 321]
EC50: 10 to 100 nM
--
compound: O=C([C@H]1CCO1)N1CC2(CC2)[C@H](NS(=O)(=O)C2(F)CC2)[C@@H]1Cc1cccc(-c2ccccc2)c1F [Compound 420]
EC50: 0.0794 to 1 nM
--
compound: C[C@@H](F)C(=O)N1CC2(CC2)[C@H](NS(=O)(=O)C(F)F)[C@@H]1Cc1cccc(-c2cc(F)cc(F)c2)c1F [Compound 378]
EC50: 0.0794 to 1 nM
--
compound: O=C(NCC(F)F)N1CC2(CC2)[C@H](NS(=O)(=O)C(F)F)[C@@H]1Cc1cc(F)cc(-c2ccccc2)c1F [Compound 389]
EC50: 1 to 10 nM
--
compound: COC1CN(C(=O)N2CC3(CC3)[C@H](NS(=O)(=O)N(C)C)[C@@H]2Cc2cccc(-c3ccccc3)c2F)C1 [Compound 118]
EC50: 1 to 10 nM
--
compound: O=C([C@H](O)CF)N1CC2(CC2)[C@H](NS(=O)(=O)C(F)F)[C@@H]1Cc1cccc(-c2cccc(F)c2)c1F [Compound 380]
EC50: 0.0794 to 1 nM
--
compound: CO[C@H]1CCN(C(=O)N2CC3(CC3)[C@H](NS(C)(=O)=O)[C@@H]2Cc2cccc(-c3ccccc3)c2F)C1 [Compound 313]
EC50: 10 to 100 nM
--
compound: CS(=O)(=O)N[C@@H]1[C@H](Cc2cccc(-c3ccccc3)c2F)N(C(=O)NCCO)CC12CC2 (racemic) [Compound 307]
EC50: 1 to 10 nM
--
compound: CS(=O)(=O)N[C@@H]1[C@H](Cc2cccc(-c3ccccc3)c2F)N(C(=O)NC2CC(F)(F)C2)CC12CC2 [Compound 83]
EC50: 10 to 100 nM
--
compound: CS(=O)(=O)N[C@@H]1[C@H](Cc2cccc(-c3ccccc3)c2F)N(C(=O)NC[C@@H]2CCOC2)CC12CC2 [Compound 329]
EC50: 1 to 10 nM
--
compound: CCS(=O)(=O)N[C@@H]1[C@H](Cc2cccc(-c3ccccc3)c2)N(C(=O)[C@H]2CCO2)CC12CC2 [Compound 41]
EC50: 1 to 10 nM

Cited source: patent US12503475B2
